Biological target: LHRH (Rattus norvegicus, UniProt P30969)
Construct: endogenous in cells; host or cells: rat pituitary cells (own knowledge of the cited Haviv 1989 method)
Sequence (P30969 1-327): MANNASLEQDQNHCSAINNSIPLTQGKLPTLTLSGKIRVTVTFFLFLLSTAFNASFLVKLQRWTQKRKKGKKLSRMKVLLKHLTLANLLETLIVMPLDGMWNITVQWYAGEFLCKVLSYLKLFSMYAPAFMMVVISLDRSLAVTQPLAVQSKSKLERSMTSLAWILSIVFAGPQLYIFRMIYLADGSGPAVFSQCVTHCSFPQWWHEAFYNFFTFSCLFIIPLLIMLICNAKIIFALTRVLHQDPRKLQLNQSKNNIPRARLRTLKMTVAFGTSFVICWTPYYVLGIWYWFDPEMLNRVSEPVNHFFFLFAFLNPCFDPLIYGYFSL
Assay: in vitro test for LHRH antagonist potency (pA2)
Type: cell-based
Conditions: negative logarithm of the antagonist concentration required to shift the response curve produced by the agonist leuprolide to two-fold higher concentration
Non-standard residues stand in square brackets, D forms with d. Residues, ends and D or L forms follow the SMILES beside them. *: point of attachment. dPhe(4-Cl) = N[C@H](Cc1ccc(Cl)cc1)C(=O)O; d2Nal = N[C@H](Cc1ccc2ccccc2c1)C(=O)O; Lys(iPr) = CC(C)NCCCC[C@H](N)C(=O)O; NMeY = CN[C@@H](Cc1ccc(O)cc1)C(=O)O; d3Pal = N[C@H](Cc1cccnc1)C(=O)O; Nicotinoyl = O=C(c1cccnc1)*
assay metric: Kb (nM)
Write the number in nM without appending the unit.

response.value for CC(=O)N[C@H](Cc1ccc(O)cc1)C(=O)N[C@H](Cc1ccc2ccccc2c1)C(=O)N[C@H](Cc1ccc(Cl)cc1)C(=O)N[C@H](Cc1cccnc1)C(=O)N[C@@H](CO)C(=O)N(C)[C@@H](Cc1ccc(O)cc1)C(=O)N[C@H](CCCCNC(=O)c1cccnc1)C(=O)N[C@@H](CC(C)C)C(=O)N[C@@H](CCCCNC(C)C)C(=O)N1CCC[C@H]1C(=O)N[C@H](C)C(N)=O [Example 1] (Ac-[dY][d2Nal][dPhe(4-Cl)][d3Pal]S[NMeY][dK](Nicotinoyl)L[Lys(iPr)]P[dA]-NH2) (field: Kb) = 0.0178

---

Target: LHRH (Rattus norvegicus)
Construct: endogenous in cells; host or cells: rat pituitary cells (own knowledge of the cited Haviv 1989 method)
Sequence (P30969 1-327): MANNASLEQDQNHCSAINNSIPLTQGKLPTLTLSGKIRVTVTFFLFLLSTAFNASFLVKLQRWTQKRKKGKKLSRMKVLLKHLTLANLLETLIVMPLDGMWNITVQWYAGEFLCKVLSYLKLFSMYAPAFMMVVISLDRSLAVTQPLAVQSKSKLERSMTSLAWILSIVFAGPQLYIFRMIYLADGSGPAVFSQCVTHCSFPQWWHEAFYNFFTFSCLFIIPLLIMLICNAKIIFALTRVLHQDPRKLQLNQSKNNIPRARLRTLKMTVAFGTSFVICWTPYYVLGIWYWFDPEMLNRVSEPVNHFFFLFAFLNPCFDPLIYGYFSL
Test: in vitro test for LHRH antagonist potency (pA2)
Assay type: cell-based
Details: negative logarithm of the antagonist concentration required to shift the response curve produced by the agonist leuprolide to two-fold higher concentration
Non-standard residues stand in square brackets, D forms with d. Residues, ends and D or L forms follow the SMILES beside them. *: point of attachment. Shikimoyl = O=C(C1=C[C@@H](O)[C@@H](O)[C@H](O)C1)*; dPhe(4-Cl) = N[C@H](Cc1ccc(Cl)cc1)C(=O)O; d2Nal = N[C@H](Cc1ccc2ccccc2c1)C(=O)O; NMeY = CN[C@@H](Cc1ccc(O)cc1)C(=O)O; d3Pal = N[C@H](Cc1cccnc1)C(=O)O; Nicotinoyl = O=C(c1cccnc1)*; Aze = O=C(O)[C@@H]1CCN1
Kindly supply the reported Kb values for the records listed here.
Remember to quote the unit after the number.

response.value for CC(C)C[C@H](NC(=O)[C@@H](CCCCNC(=O)C1=C[C@@H](O)[C@@H](O)[C@H](O)C1)NC(=O)[C@H](Cc1ccc(O)cc1)N(C)C(=O)[C@H](CO)NC(=O)[C@@H](Cc1cccnc1)NC(=O)[C@@H](Cc1ccc(Cl)cc1)NC(=O)[C@@H](Cc1ccc2ccccc2c1)NC(=O)[C@@H](C)NC(=O)c1cccnc1)C(=O)N[C@@H](CCCNC(=N)N)C(=O)N1CCC[C@H]1C(=O)N[C@H](C)C(N)=O [Example 14c] (Nicotinoyl-[dA][d2Nal][dPhe(4-Cl)][d3Pal]S[NMeY][dK](Shikimoyl)LRP[dA]-NH2) (field: Kb) = 0.00537 nM

response.value for CC(C)C[C@H](NC(=O)[C@@H](CCCCNC(=O)C1=C[C@@H](O)[C@@H](O)[C@H](O)C1)NC(=O)[C@H](Cc1ccc(O)cc1)N(C)C(=O)[C@H](CO)NC(=O)[C@@H](Cc1cccnc1)NC(=O)[C@@H](Cc1ccc(Cl)cc1)NC(=O)[C@@H](Cc1ccc2ccccc2c1)NC(=O)CNC(=O)c1cccnc1)C(=O)N[C@@H](CCCNC(=N)N)C(=O)N1CC[C@H]1C(=O)N[C@H](C)C(N)=O [Example 24] (Nicotinoyl-G[d2Nal][dPhe(4-Cl)][d3Pal]S[NMeY][dK](Shikimoyl)LR[Aze][dA]-NH2) (field: Kb) = 0.0282 nM

Data credit: patent US5502035A
